# test_target: variety of brain targets
# test_details: Affinity for a variety of brain targets
# assay_context: variety of brain targets (Table 1), except H4R
pKi: −log10 of the molar value.
metric_name: pKi

> print(dat)
                       smiles.string  metric.name  recorded.measurement
1  COc1ccc(N(C)c2nc(C)nc3ccccc23)cc1          pKi                < 5.00
